Tested on: SW-620
ASSAY_DETAILS: NCI tumour cell line growth inhibition, 48 h
Active and inactive are the calls of the source. Rule as the data show it: active = GI50 up to about 1.1 µM and inactive = higher.
OBSERVABLE: GI50

COc1cc(C(=O)C/C(CCC(=O)Nc2ccccc2[N+](=O)[O-])=N\NC(=O)C(N)=O)ccc1O | > 100 µM (inactive)
CC(C)c1ccc2nc3ccc(C(=O)NCCN(C)C)cn3c(=O)c2c1 | 14.7 µM (inactive)
CCC(C#N)(c1ccccc1)N(CCc1ccccc1)C(=O)c1ccccc1 (stereo unspecified) | > 100 µM (inactive)
Cn1c(-c2ccco2)ccc1-c1ccc(C=O)o1 | 33.4 µM (inactive)
C[N+](C)=c1[nH]c2ccccc2[nH]1 | > 100 µM (inactive)

Return reported GI50. Input molecule: O=C(OCc1ccccc1[N+](=O)[O-])N1c2ccccc2[C@@]23O[C@]24CCC[C@H]3C#C/C=C\C#C[C@H]14
9.16 µM (inactive)

Where do the numbers come from? From ChEMBL document CHEMBL1201862.
